Molecular target: Transglutaminase 2 (Cavia cutleri, UniProt P08587)
Sequence (P08587 1-690): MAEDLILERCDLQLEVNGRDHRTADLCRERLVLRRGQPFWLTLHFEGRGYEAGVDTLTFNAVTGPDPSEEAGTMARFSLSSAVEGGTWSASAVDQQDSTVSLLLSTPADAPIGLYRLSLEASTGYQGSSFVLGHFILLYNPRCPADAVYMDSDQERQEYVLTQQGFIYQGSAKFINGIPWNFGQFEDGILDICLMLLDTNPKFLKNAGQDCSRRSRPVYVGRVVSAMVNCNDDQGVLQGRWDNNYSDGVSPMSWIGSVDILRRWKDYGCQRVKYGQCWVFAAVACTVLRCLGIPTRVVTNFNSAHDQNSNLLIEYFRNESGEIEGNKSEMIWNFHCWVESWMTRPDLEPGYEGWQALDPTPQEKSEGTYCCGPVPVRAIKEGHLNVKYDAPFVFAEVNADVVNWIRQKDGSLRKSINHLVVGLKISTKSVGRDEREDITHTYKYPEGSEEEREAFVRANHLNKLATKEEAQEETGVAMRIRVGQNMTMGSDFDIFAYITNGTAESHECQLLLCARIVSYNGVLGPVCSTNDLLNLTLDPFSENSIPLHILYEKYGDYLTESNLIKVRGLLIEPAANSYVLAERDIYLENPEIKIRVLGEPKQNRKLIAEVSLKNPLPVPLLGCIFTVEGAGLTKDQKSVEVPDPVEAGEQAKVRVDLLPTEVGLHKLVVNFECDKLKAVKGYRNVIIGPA
result type: IC50 (nM)
The reply should contain only the number, in nM.

What value of IC50 has been recorded for this entry: O=C(O[C@@H]1Cc2c(O)cc(O)cc2O[C@@H]1c1cc(O)c(O)c(O)c1)c1cc(O)c(O)c(O)c1
517
